B1: Caulobacter ParB omega fusion; a variant is named by its letters at X, in order, B8GW30 (parent)
chain: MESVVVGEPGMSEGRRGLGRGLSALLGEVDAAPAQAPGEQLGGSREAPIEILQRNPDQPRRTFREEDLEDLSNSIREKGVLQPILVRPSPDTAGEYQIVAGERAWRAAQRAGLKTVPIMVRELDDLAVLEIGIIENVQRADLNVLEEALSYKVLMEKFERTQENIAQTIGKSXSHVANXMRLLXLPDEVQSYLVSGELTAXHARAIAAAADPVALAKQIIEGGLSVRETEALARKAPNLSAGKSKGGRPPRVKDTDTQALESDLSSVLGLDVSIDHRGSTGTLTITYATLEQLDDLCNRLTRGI

Variants of: B1
Test: one-hybrid fitness for binding NBS DNA (the Noc-binding site; scaled: cognate 1, non-cognate 0); higher = stronger binding
Details: with NBS DNA site
Whole data set: some 81,000 sequences, median “one-hybrid fitness for binding NBS DNA” near -0.1, cut for the highest 2% near 0.36. Shown is part of a subset that was picked to be rich in the highest values.
one-hybrid fitness for binding NBS DNA by entry:

Prompt: What does the data say about its one-hybrid fitness for binding NBS DNA? Entry: QRPQ
Response: ≤ 0.2

Prompt: Requested read-out: one-hybrid fitness for binding NBS DNA. Entry: RKHD
Response: ≤ 0.2

Prompt: State the recorded one-hybrid fitness for binding NBS DNA for this entry: QRPV
Response: ≤ 0.2

Prompt: Data request, read-out one-hybrid fitness for binding NBS DNA, for DQRR
Response: ≤ 0.2

Prompt: Could you share which one-hybrid fitness for binding NBS DNA value was measured for RPKS ?
Response: ≤ 0.2
